Tested on: MRSA-575
PROCEDURE_SUMMARY: paper diffusion drug sensitivity test, MRSA-575
Format: cell-based, Staphylococcus aureus
STATED_CONDITIONS: MRSA-575; drug sensitive paper 30 μg/tablet; LB plate, 37° C., 24 h
READOUT_NAME: Zone of inhibition (mm)

CN[C@H](CC(C)C)C(=O)N[C@H]1C(=O)N[C@@H](CC(N)=O)C(=O)N[C@H]2C(=O)N[C@H]3C(=O)N[C@H](C(=O)N[C@H](C(=O)O)c4cc(O)cc(O)c4-c4cc3ccc4O)[C@H](O)c3ccc(c(Cl)c3)Oc3cc2cc(c3O[C@@H]2O[C@H](CO)[C@@H](O)[C@H](O)[C@H]2O[C@H]2C[C@](C)(N)[C@H](O)[C@H](C)O2)Oc2ccc(cc2Cl)[C@H]1O : 17
C=C[C@]1(C)C[C@@H](OC(=O)COC(=O)CC[C@@H](C)[C@H]2CCC3[C@@H]4[C@@H](O)C[C@@H]5C[C@H](O)CC[C@]5(C)[C@H]4CC[C@@]32C)[C@]2(C)CC[C@@H](C)[C@@]3(CCC(=O)[C@@H]23)[C@@H](C)[C@@H]1O (stereo partly shown) : 13
C=C[C@]1(C)C[C@@H](OC(=O)CO)[C@]2(C)[C@H](C)CC[C@]3(CCC(=O)[C@H]32)[C@@H](C)[C@@H]1O : 0
C[C@H](CCC(=O)O)[C@H]1CC[C@H]2[C@@H]3[C@@H](O)C[C@@H]4C[C@H](O)CC[C@]4(C)[C@H]3CC[C@]12C : 0

Attribution: patent US11186607B1
